- measurement_description: clinical
- stated_conditions: both, human, plasma, po, 900 mg
property_measured: AUC(0-t) (µg·h/mL)
Quick note: give the figure in µg·h/mL, leave out the unit.

Record NC(=O)N1c2ccccc2C[C@H](O)c2ccccc21 [eslicarbazepine] , field AUC(0-t): 382

====

- measurement_description: Trial B: pharmacokinetics following single and repeated doses in healthy young male subjects
- Assay type: in vivo, humans
- stated_conditions: male, human, in vivo, oral, 1800 mg, last dose of 8-day repeated 1800 mg o.d. eslicarbazepine acetate, n=6; read-out: Mean apparent t½ (%CV) (converted)
- Description: The study integrated the results of three double-blind, randomized, placebo-controlled trials. […] The pharmacokinetics of eslicarbazepine acetate following repeated doses were measured by administering repeated oral doses ranging from 400 mg to 2400 mg of eslicarbazepine acetate to healthy young male subjects (6 subjects per dose) over a period of 8 days. […]
property_measured: half-life (h)
Numbers only; they are read as h.

Just so you know, measured half-life for NC(=O)N1c2ccccc2C[C@H](O)c2ccccc21 [eslicarbazepine] came out at 11.3

====

- measurement_description: Trial B: pharmacokinetics following single and repeated doses in healthy young male subjects
- Assay type: in vivo, humans
- stated_conditions: male, human, in vivo, oral, 200 mg, single dose 200 mg eslicarbazepine acetate, n=6; read-out: Mean apparent t½ (%CV) (converted)
property_measured: half-life (h)
Report the value in h with no unit label.

Note to self: half-life recorded for NC(=O)N1c2ccccc2C[C@H](O)c2ccccc21 [eslicarbazepine] was 8.4

====

- measurement_description: Trial B: pharmacokinetics following single and repeated doses in healthy young male subjects
- Type: in vivo, humans
- stated_conditions: male, human, in vivo, oral, 1200 mg, last dose of 8-day repeated 1200 mg o.d. eslicarbazepine acetate, n=6; read-out: Mean apparent t½ (%CV) (converted)
property_measured: half-life (h)
Form entry: value (h) — number only.

GET /value?item= NC(=O)N1c2ccccc2C[C@H](O)c2ccccc21 [eslicarbazepine] &field=half-life returns 13.1

====

- measurement_description: Trial B: pharmacokinetics following single and repeated doses in healthy young male subjects
- Format: in vivo, humans
- stated_conditions: male, human, plasma, oral, 1800 mg, single dose 1800 mg eslicarbazepine acetate, n=6; read-out: Mean Cmax (%CV)
property_measured: Cmax (ng/mL)
Your answer is read as ng/mL, so omit the unit and give the number.

The reported value for NC(=O)N1c2ccccc2C[C@H](O)c2ccccc21 [eslicarbazepine] in terms of Cmax is 34600

====

- measurement_description: Trial B: pharmacokinetics following single and repeated doses in healthy young male subjects
- Format: in vivo, humans
- stated_conditions: male, human, in vivo, oral, 400 mg, single dose 400 mg eslicarbazepine acetate, n=6; read-out: Mean Cmax (%CV)
property_measured: Cmax (µg/mL)
Return type: number; implicit unit µg/mL.

Kindly note the recorded Cmax for NC(=O)N1c2ccccc2C[C@H](O)c2ccccc21 [eslicarbazepine] , which is 5.2
